λmax (ABS) values, listed per item
Method Summary: Spectroscopic properties of the BDM library (absorbance and emission maxima)
Type: physicochemical
Entry format: amount then unit.

1. CC1=CC(/C=C/c2ccc(OC(F)(F)F)cc2)=[N+]2C1=C(CCN)c1cccn1[B-]2(F)F [BDM-68] :: 551 nm
2. CCOc1cc(/C=C/C2=[N+]3C(=C(CCN)c4cccn4[B-]3(F)F)C(C)=C2)ccc1O [BDM-397] :: 570 nm
3. CCOc1ccc(/C=C/c2cc(C)c3n2[B-](F)(F)[N+]2=CC=CC2=C3CCN)cc1OCC [BDM-53] :: 568 nm
4. CC1=CC(/C=C/c2ccc(Cl)c(F)c2)=[N+]2C1=C(CCN)c1cccn1[B-]2(F)F [BDM-437] :: 555 nm
5. COc1ccc(/C=C/c2cc(C)c3n2[B-](F)(F)[N+]2=CC=CC2=C3CCN)c2ccccc12 [BDM-32] :: 576 nm
6. COc1ccc(/C=C/C2=[N+]3C(=C(CCN)c4cccn4[B-]3(F)F)C(C)=C2)c(O)c1 [BDM-192] :: 574 nm
7. CC1=CC(/C=C/c2ccc(OC(F)F)cc2)=[N+]2C1=C(CCN)c1cccn1[B-]2(F)F [BDM-326] :: 554 nm
8. Cc1cc(/C=C/c2ccc(C(C)C)cc2)n2c1C(CCN)=C1C=CC=[N+]1[B-]2(F)F [BDM-19] :: 555 nm

Input line: So what does the record say about λmax (ABS) for CC1=CC(/C=C/c2ccc(Oc3ccc(F)cc3)cc2)=[N+]2C1=C(CCN)c1cccn1[B-]2(F)F [BDM-322] ?
Output line: 559 nm

Input line: Which λmax (ABS) is reported for this compound? Cc1cc(/C=C/c2ccc(Cl)cc2)n2c1C(CCN)=C1C=CC=[N+]1[B-]2(F)F [BDM-12]
Output line: 556 nm
